src = patent US20260226067A1

biological target: Human TRPML3 (Homo sapiens, UniProt Q8TDD5); assay: Fluorescent TRPML3 assay (as for TRPML1); details: as TRPML1 assay with TRPML3 subtype; read-out: Human TRPML 3 EC50
Sequence (Q8TDD5 whole entry): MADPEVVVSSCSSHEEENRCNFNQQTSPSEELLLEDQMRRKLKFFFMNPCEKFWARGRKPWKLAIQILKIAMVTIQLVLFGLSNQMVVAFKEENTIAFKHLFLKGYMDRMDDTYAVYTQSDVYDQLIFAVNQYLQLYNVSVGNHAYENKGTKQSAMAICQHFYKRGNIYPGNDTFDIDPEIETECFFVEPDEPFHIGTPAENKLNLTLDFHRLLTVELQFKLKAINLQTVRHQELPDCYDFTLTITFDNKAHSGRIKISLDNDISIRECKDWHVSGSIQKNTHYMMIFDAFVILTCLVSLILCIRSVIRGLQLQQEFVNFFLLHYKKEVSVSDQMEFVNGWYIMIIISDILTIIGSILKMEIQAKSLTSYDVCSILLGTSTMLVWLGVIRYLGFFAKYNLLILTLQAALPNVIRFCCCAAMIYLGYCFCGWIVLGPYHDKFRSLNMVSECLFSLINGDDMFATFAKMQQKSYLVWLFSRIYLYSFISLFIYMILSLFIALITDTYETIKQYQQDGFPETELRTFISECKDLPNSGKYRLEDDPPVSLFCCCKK
pEC50: −log10 of the molar value.
As shown below, each of these compounds has a reported pEC50 value.

As a guide, the following entries are already answered.
C[C@@H]1CN(c2ncnc3c2c(N2CCC2)cn3-c2cc(C#N)ccn2)[C@@H](C)CN1C(=O)c1cccc(F)c1 6.30 to 7.00
C[C@@H]1CN(c2ncnc3c2c(-c2ccccc2F)cn3-c2cc(C#N)ccn2)[C@@H](C)CN1C(=O)c1ccccc1N(C)C > 7.00
C[C@@H]1CN(c2ncnc3c2c(N2CCC2)cn3-c2cc(C#N)ccn2)[C@@H](C)CN1C(=O)c1ccccc1F 5.70 to 6.30

Documented pEC50 of `C[C@@H]1CN(c2ncnc3c2c(N2CCC2)cn3-c2cc(C#N)ccn2)[C@@H](C)CN1C(=O)c1ccccc1` : 6.30 to 7.00

pEC50 in this record for `C[C@@H]1CN(c2ncnc3c2c(C(F)(F)F)cn3-c2cc(C#N)ccn2)[C@@H](C)CN1C(=O)c1ccccc1` : > 7.00

For this compound ( `C[C@@H]1CN(c2ncnc3c2c(-c2ccccc2)cn3-c2cc(C#N)ccn2)[C@@H](C)CN1C(=O)c1ccccc1` ), measured pEC50 is 6.30 to 7.00

Input `C[C@@H]1CN(c2ncnc3c2c(C2CC2)cn3-c2cc(C#N)ccn2)[C@@H](C)CN1C(=O)c1ccccc1` . Output pEC50: 6.30 to 7.00
